TARGET: IL-6R-Fc 항원 (human) (UniProt P08887)
PROCEDURE DETAILS: mono phage ELISA; antigen coated 100 ng/well; anti-M13-HRP
RECORDED ENDPOINT: OD 490 nm (IL-6R full) (OD490)
Could you give me the number in OD490? Just the number is fine.

모노 파아지 클론 F2 (scFv, V domains shown) VH: QVQLVESGAEVKKPGASVKVSCKASGYTFTNYYMHWVRQAPGQGLEWMGIINPSGGNTGYAQKFQGRVTMTRDMSTSTAYMELSSLRSEDTAVYYCARGLPWGENGLDVWGQGTTVTVSS VL: SQLVLTQPSSVSGAPGQTVTISCTGSSSNIGAGYDVHWYQQLPGTAPKVLIYGDSDRPSGVPDRFSGSKSATSASLAITGLQAEDEADYYCQSYDSSLSAYVFGTGTKVTVL
2.86
모노 파아지 클론 A7 (scFv, V domains shown) VH: QMQLVESGGGLVQPGTSLRLSCAASGFKFEDYAMHWVRQAPGKGLEWVSGVSWNSGTIAYVDSVKGRFTISRDNAKNSLYLQMNSLRAEDTAVYYCARDFTYFYESSGYYAFDLWGQGTMVTVSS VL: SQLVLTQPPSVSGAPGQRVTISCTGTNSNIGAGYDVHWYQQVPGTTPKLLIYGNTNRPSGVPDRFSGSKSGTSASLAITGLQAEDGGDYYCQSFDSSLTGSVFGTGTKVTVL
2.48
모노 파아지 클론 D2 (scFv, V domains shown) VH: QVQLVESGAEVKKPGSSVKVSCKGSGDTFPNYAINWVRQAPGQGPEWMGRIIPMLGTSDYAEKFQGRVTITADKSTNTAYMGLNSLRSEDTAVYYCVKGPRYYGTDSYYLEKWGQGTMVTVSS VL: SQLVLTQPPSVSGAPGQTVTISCTGPTIGAGYDVHWYQQLPGAAPKLLIYGNLNRPSGVPDRFSGSKSGTSASLAITDLQAEDEADYYCHTYDSSLSGSWVFGGGTKLTVL
2.34

Now for a further binder.
Ask: Look at this binder and give its reported OD 490 nm (IL-6R full). 모노 파아지 클론 B10 (scFv, V domains shown) VH: QVQLVESGGGLVQPGGSLRLSCAASGFIFDDYAMFWVRQVPGKGLEWVAGINWNGNGIGYGDSVRGRFIISRDNARNSLDLQMNSLRAEDTAVYYCARPSLYGGNSEFDLWGQGTLVTVSS VL: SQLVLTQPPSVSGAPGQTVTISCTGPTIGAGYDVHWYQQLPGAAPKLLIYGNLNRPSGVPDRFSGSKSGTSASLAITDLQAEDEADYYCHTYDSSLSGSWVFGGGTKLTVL
Result: 2.1
